TARGET DESC: canine TRPM8 (Canis lupus familiaris, UniProt Q1A7N1)
Construct: expressed in transfected cells
Sequence (Q1A7N1 1-1104): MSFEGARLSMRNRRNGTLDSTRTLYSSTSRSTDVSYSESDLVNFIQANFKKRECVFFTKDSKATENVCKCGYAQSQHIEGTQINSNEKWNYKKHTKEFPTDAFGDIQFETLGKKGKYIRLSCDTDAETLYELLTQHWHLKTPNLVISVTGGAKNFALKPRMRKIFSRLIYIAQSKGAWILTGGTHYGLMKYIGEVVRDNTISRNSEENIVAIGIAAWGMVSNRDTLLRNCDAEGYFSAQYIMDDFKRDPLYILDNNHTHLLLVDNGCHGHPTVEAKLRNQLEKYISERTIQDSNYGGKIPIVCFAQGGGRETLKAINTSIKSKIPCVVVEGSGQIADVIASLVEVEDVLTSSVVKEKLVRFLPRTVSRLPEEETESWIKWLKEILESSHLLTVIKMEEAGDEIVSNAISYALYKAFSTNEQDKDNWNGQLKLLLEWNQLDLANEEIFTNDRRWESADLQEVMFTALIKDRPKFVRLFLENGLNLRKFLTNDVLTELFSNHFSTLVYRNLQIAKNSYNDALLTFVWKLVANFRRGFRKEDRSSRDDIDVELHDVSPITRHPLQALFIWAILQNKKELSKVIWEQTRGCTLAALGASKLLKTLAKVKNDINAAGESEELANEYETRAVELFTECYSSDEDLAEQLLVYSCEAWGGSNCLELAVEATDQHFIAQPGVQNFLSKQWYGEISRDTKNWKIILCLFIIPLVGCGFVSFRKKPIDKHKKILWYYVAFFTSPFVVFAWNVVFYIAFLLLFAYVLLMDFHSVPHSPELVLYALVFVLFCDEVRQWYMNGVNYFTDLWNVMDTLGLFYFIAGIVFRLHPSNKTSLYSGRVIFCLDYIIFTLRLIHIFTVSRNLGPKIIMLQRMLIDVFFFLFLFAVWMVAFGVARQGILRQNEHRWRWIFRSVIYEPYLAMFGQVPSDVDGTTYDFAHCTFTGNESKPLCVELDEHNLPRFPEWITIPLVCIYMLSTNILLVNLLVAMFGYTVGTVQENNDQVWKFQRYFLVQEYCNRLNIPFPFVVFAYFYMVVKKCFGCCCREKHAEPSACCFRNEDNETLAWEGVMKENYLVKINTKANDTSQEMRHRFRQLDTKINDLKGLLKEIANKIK
METHOD: In Vitro Canine TRPM8 Functional Assay (intracellular Ca2+ fluorescence, icilin activation, HEK293 cells)
Assay type: cell-based
APPLIED CONDITIONS: HEK293, 0.2 μM test compound; individually measured values; read-out: % Inh (%) @0.2 μM, in vitro TRP M8 Activity
Where a name gives a salt, the structure may show the parent alone.
QUANTITY NAME: inhibition at 0.2 µM (%)

1) Cc1c(C(C)(C)C)nn(C)c1-c1nc2cc(-c3c(F)cccc3OC(F)(F)F)cc(Cl)c2[nH]1 [Compound 138, hydrochloride]
99

a: Cn1nc2c(c1-c1nc3cc(-c4ccccc4F)ccc3[nH]1)CCC2(C)C [Compound 131]
b: Cc1oc(C(C)(C)C)nc1-c1nc2cc(-c3ccccc3OC(F)(F)F)cc(C(F)(F)F)c2[nH]1 [Compound 156, hydrochloride]
[Q] Returns the identifier with the smallest measured inhibition at 0.2 µM among a and b . Which one? Tell me its label.
[A] b

---

TARGET DESC: canine TRPM8 (Canis lupus familiaris)
Construct: expressed in transfected cells
METHOD: In Vitro Canine TRPM8 Functional Assay (intracellular Ca2+ fluorescence, icilin activation, HEK293 cells)
Type: cell-based
APPLIED CONDITIONS: HEK293, 0.2 μM test compound; individually measured values; read-out: % Inh (%) @0.2 μM, in vitro TRP M8 Activity
Procedure: The changes in fluorescent signal were monitored by a fluorescence plate reader, either a FLIPR™ (Molecular Devices) or FDSS (Hamamatsu). […] Cells were maintained in 5% CO2 at 37° C. […] Maximal fluorescence intensity (FI) achieved upon addition of icilin was exported from the FLIPR™ or FDSS software and further analyzed using GraphPad Prism 3.02 (Graph Pad Software Inc., CA, U.S.A.). […] Finally, IC50 values were calculated with the best-fit curve determined by GraphPad Prism
Structures can show the parent of a compound that is named as a salt.
QUANTITY NAME: inhibition at 0.2 µM (%)

1) Cn1nc(C(C)(C)C)c(Cl)c1-c1nc2cc(-c3ccccc3Cl)cc(Cl)c2[nH]1.[Na] [Compound 115, sodium salt]
100
2) Cc1oc(C(C)(C)C)nc1-c1nc2cc(-c3ccccc3Cl)cc(Cl)c2[nH]1 [Compound 163, hydrochloride]
62
3) Cn1nc2c(c1-c1nc3cc(-c4ccccc4C(F)(F)F)cc(C(F)(F)F)c3[nH]1)CCC21CCCCC1
99

a: Cl.Cn1nc(C(C)(C)C)c(Cl)c1-c1nc2cc(-c3ccccc3F)cc(Cl)c2[nH]1 [Compound 114, sodium salt]
b: Cc1nc(C(C)(C)C)oc1-c1nc2cc(-c3ccccc3OC(F)(F)F)cc(C(F)(F)F)c2[nH]1 [Compound 176, hydrochloride]
[Q] Returns the identifier with the smallest measured inhibition at 0.2 µM among a and b . Which one? Tell me its label.
[A] b
(b: 60%, a: 99%)
